# study.system: angiotensin II AT1 receptor
# protocol.summary: Assay A: Angiotensin II binding activity (125I-AII displacement, rat uterine membrane preparation)
# log10(IC50) annotations
readout.label: log10(IC50) (log10 of the value in nM)

>>> print(df.to_string())
                                    compound  result
 0  CCCCc1nc2cnncc2n1Cc1ccc(-c2ccccc2C(=O)O)cc1    2.86
 1  CCCCc1nc(Cc2ccc(-c3ccccc3-c3nnn[nH]3)cc2)n(CCCC)n1    1.20
 2  CCCCc1nc(CCC(=O)O)n(Cc2ccc(-c3ccccc3-c3nnn[nH]3)cc2)n1    1.73
 3  CCCn1nc(C(F)(F)CCC)nc1Cc1ccc(-c2ccccc2-c2nnn[nH]2)nc1    2.18
 4  CCCCc1nc(CCc2ccccc2)nn1Cc1ccc(-c2ccccc2-c2nnn[nH]2)nc1    0.41
 5  CCCCc1nc(C(F)(F)CCC)nn1Cc1ccc(-c2ccccc2-c2nnn[nH]2)nc1    0.97
 6  CCCCc1cn(CCc2ccccc2)c(=O)n1Cc1ccc(-c2ccccc2-c2nnn[nH]2)cc1    1.00
 7  CCCCc1nc(CCC2CCCCC2)n(Cc2ccc(-c3ccccc3-c3nnn[nH]3)cc2)n1    2.57
 8  CCCCc1c(C)n(CCCC)c(=O)n1Cc1ccc(-c2ccccc2-c2nnn[nH]2)cc1    2.34
 9  CCCCc1nc(CF)nn1Cc1ccc(-c2ccccc2-c2nnn[nH]2)cc1    2.08
10  CCCCc1nn(CC(OCC(=O)OCC)c2ccccc2)c(=O)n1Cc1ccc(-c2ccccc2-c2nn[nH]n2)cc1 (stereo not shown)    2.26
11  CCCCc1nc2c(OCC)nnc(OCC)c2n1Cc1ccc(-c2ccccc2-c2nnn[nH]2)cc1    3.30
12  CCCCc1nc(CNC(=O)CCC(NC(C)=O)C(=O)OC(C)(C)C)nn1Cc1ccc(-c2ccccc2-c2nnn[nH]2)cc1 (stereo not shown)    3.57
13  CCCCc1cn(CCc2cccs2)c(=O)n1Cc1ccc(-c2ccccc2-c2nnn[nH]2)cc1    1.34
14   CCCCc1ncn(Cc2ccc(-c3ccccc3C(=O)O)cc2)n1    4.08
15  CCCCc1nc(Cc2ccc(-c3ccccc3C(=O)O)cc2)nn1CCCC    4.08
16  CCCCc1nc(CCCC)n(Cc2ccc(-n3c(Cl)cc(Cl)c3-c3nnn[nH]3)cc2)n1   -1.28
17  CCCCc1nc(CCCC)n(Cc2ccc(-c3cnccc3-c3nnn[nH]3)cc2)n1    2.18
18  CCCCc1cn(CCCC)c(=O)n1Cc1ccc(-c2ccncc2-c2nnn[nH]2)cc1    1.97

---

# study.system: angiotensin II AT1 receptor
# protocol.summary: Assay A: Angiotensin II binding activity (125I-AII displacement, rat uterine membrane preparation)
pIC50: −log10 of the molar value.
# pIC50 annotations
readout.label: pIC50

In [3]: df
Out[3]:
                               smiles_entry  result
0  CCCCc1nc(C23CC4CC(CC(C4)C2)C3)n(Cc2ccc(-c3ccccc3-c3nnn[nH]3)cc2)n1    7.10
1  CCCCc1nn(CC(=O)O)c(=O)n1Cc1ccc(-c2ccccc2-c2nn[nH]n2)cc1    7.04
2  CCCCc1nc(-c2ccccc2)nn1Cc1ccc(-c2ccccc2-c2nnn[nH]2)cc1    7.06
3  CCCCc1nc(CCCC)n(Cc2ccc(-c3ncccc3-c3nnn[nH]3)cc2)n1    7.01
4  CCCCc1nc(CCCC2CCCCC2)nn1Cc1ccc(-c2ccccc2-c2nnn[nH]2)cc1    6.85
5  CCCCCCCCc1nc(CCCC)n(Cc2ccc(-c3ccccc3-c3nnn[nH]3)cc2)n1    6.80
6  CCCCCc1nc(Cc2ccc(-c3ccccc3-c3nnn[nH]3)nc2)n(CCCC)n1    7.11
